Origin of values: patent US9353067B2

Assay: Transdermal administration of R-55 formulation to pigs, plasma R-55
Format: in vivo, White Landrace female pigs
Conditions: female, White Landrace, pig, plasma, topical, 500 mg, transdermal 500 mg R-55, 30 minutes after application, individual animals #1-#4
assay.readout: concentration at 30 min (ng/mL)
State just the number; it will be interpreted in ng/mL.

Input line: Given `O=c1[nH]c(CN2CCN(c3cccc(O)c3)CC2)nc2ccccc12` , state its recorded concentration at 30 min.
Output line: 16.7

----------
Assay: Hydrolysis (half-life) of esterified derivatives of R-55 in human plasma
Type: in vitro ADME
Details: fresh human plasma; hydrolysis of ester to R-55, human plasma, 37° C.; read-out: T1/2 in human plasma
# if measured half-life at 0.19 mg/ml < 5 h: Yes  # else: No

Input line: In the record for O=C(Oc1cccc(N2CCN(Cc3nc4ccccc4c(=O)[nH]3)CC2)c1)c1ccccc1 [Compound L-207] , is half-life at 0.19 mg/ml less than 5 h?
Output line: Yes

Input line: In the record for CCOc1ccc(C(=O)Oc2cccc(N3CCN(Cc4nc5ccccc5c(=O)[nH]4)CC3)c2)cc1 [Compound L-173] , is half-life at 0.19 mg/ml less than 5 h?
Output line: No

----------
Biological target: D4.4 type dopamine receptor (Homo sapiens (Human))
Sequence (P21917 whole entry): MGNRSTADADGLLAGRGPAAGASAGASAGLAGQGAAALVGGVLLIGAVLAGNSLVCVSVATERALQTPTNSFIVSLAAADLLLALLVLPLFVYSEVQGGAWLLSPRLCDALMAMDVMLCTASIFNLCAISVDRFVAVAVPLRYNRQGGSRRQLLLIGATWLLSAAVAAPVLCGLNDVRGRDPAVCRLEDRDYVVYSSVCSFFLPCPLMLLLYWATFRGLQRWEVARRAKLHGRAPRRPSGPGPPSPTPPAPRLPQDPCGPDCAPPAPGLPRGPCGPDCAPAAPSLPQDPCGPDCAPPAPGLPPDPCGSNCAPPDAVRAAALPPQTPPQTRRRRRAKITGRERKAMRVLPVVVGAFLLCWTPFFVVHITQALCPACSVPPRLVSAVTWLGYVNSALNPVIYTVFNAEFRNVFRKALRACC
Assay: Competitive binding to D4.4 receptor ([3H]-YM-09151-2)
Conditions: human recombinant receptor in CHO cells, [3H]-YM-09151-2 0.3 nM
assay.readout: IC50 (µM)
State just the number; it will be interpreted in µM.

Input line: D4.4 type dopamine receptor (Homo sapiens (Human)) / IC50 / `O=c1[nH]c(CN2CCN(c3cccc(O)c3)CC2)nc2ccccc12` : value?
Output line: 0.5

----------
Experiment: Pharmacokinetics of R-55 following intravenous administration in pigs
Type: in vivo, White Landrace female pigs
Conditions: female, White Landrace, pig, plasma, iv, 0.2 mg/kg, 0.2 mg/kg intravenous, individual animals, read-out: T1/2 - half-life
assay.readout: half-life

Input line: Given `O=c1[nH]c(CN2CCN(c3cccc(O)c3)CC2)nc2ccccc12` , state its recorded half-life.
Output line: 9 to 10 min

----------
Experiment: Hydrolysis (half-life) of esterified derivatives of R-55 in rat plasma
Format: in vitro ADME
Conditions: fresh rat plasma; hydrolysis of ester to R-55, rat plasma, 37° C.; read-out: T1/2 in rat plasma
assay.readout: log10 half-life at 0.19 mg/ml (log10 of the value in min)
Friendly reminder: values = log10 of half-life at 0.19 mg/ml, unit min.

Look over these answered cases.
molecular.string | observed
O=C(Oc1cccc(N2CCN(Cc3nc4ccccc4c(=O)[nH]3)CC2)c1)c1ccccc1 | 1.46
O=C(Oc1cccc(N2CCN(Cc3nc4ccccc4c(=O)[nH]3)CC2)c1)c1ccc(F)cc1 | 1.54
COc1ccc(CC(=O)Oc2cccc(N3CCN(Cc4nc5ccccc5c(=O)[nH]4)CC3)c2)cc1 | 0.88
CCC(=O)Oc1cccc(N2CCN(Cc3nc4ccccc4c(=O)[nH]3)CC2)c1 | -0.51

Input line: Given `CCOc1ccc(C(=O)Oc2cccc(N3CCN(Cc4nc5ccccc5c(=O)[nH]4)CC3)c2)cc1` , state its recorded log10 half-life at 0.19 mg/ml.
Output line: 1.22

Input line: Given `COc1ccccc1C(=O)Oc1cccc(N2CCN(Cc3nc4ccccc4c(=O)[nH]3)CC2)c1` , state its recorded log10 half-life at 0.19 mg/ml.
Output line: 1.72

Input line: Given `Cc1ccccc1C(=O)Oc1cccc(N2CCN(Cc3nc4ccccc4c(=O)[nH]3)CC2)c1` , state its recorded log10 half-life at 0.19 mg/ml.
Output line: 1.64

----------
Test: Hydrolysis (half-life) of esterified derivatives of R-55 in human plasma
Format: in vitro ADME
Conditions: fresh human plasma; hydrolysis of ester to R-55, human plasma, 37° C.; read-out: T1/2 in human plasma
# if measured half-life at 0.19 mg/ml < 8 h: satisfied  # else: not satisfied

molecular.string | class.assignment
COc1ccc(CC(=O)Oc2cccc(N3CCN(Cc4nc5ccccc5c(=O)[nH]4)CC3)c2)cc1 | satisfied
Cc1ccc(S(=O)(=O)Oc2cccc(N3CCN(Cc4nc5ccccc5c(=O)[nH]4)CC3)c2)cc1 | not satisfied
COc1ccc(C(=O)Oc2cccc(N3CCN(Cc4nc5ccccc5c(=O)[nH]4)CC3)c2)cc1 | satisfied
COc1ccccc1C(=O)Oc1cccc(N2CCN(Cc3nc4ccccc4c(=O)[nH]3)CC2)c1 | satisfied
O=C(Oc1cccc(N2CCN(Cc3nc4ccccc4c(=O)[nH]3)CC2)c1)C1CCCCC1 | satisfied
O=C(Oc1cccc(N2CCN(Cc3nc4ccccc4c(=O)[nH]3)CC2)c1)C12CC3CC(CC(C3)C1)C2 | not satisfied

Input line: In the record for `CCC(=O)Oc1cccc(N2CCN(Cc3nc4ccccc4c(=O)[nH]3)CC2)c1` , is half-life at 0.19 mg/ml less than 8 h?
Output line: satisfied

Input line: In the record for `CS(=O)(=O)Oc1cccc(N2CCN(Cc3nc4ccccc4c(=O)[nH]3)CC2)c1` , is half-life at 0.19 mg/ml less than 8 h?
Output line: not satisfied

Input line: In the record for `Cc1ccccc1C(=O)Oc1cccc(N2CCN(Cc3nc4ccccc4c(=O)[nH]3)CC2)c1` , is half-life at 0.19 mg/ml less than 8 h?
Output line: not satisfied
